Reference for the values: a melting point compilation (Tetko et al.; mined from patent text by program, amines drawn as free bases though some values may be those of a salt)

REPORTED_METRIC: melting point

These solved cases illustrate the format of a correct answer.
COMPOUND	melting point
N#Cc1ccc(N2C(=O)C3C(F)CCN3C2=O)c2ccccc12 (stereo not given)	228 to 230 °C
C=CCC(O)(C(=O)c1ccccc1)c1ccccc1 (stereo not given)	85 to 90 °C
Cc1cc2nc(C=Cc3ccc(C(=O)O)cc3)oc2cc1C	> 300 °C
CC(=O)N(C)c1cccc(-c2ccnc3c(C(=O)c4ccccc4)cnn23)c1	162 to 164 °C

Moving on to the next compound.
Q: Which melting point reading was recorded for the compound COc1cc(CCCC(=O)OC(C)C)ccc1OCc1nc(-c2ccco2)oc1C ?
A: 45 to 46 °C

###

melting point values for the compounds below.

Example entries and their recorded answers appear below.
COMPOUND	melting point
N#CC(O)CC12CCC(c3ccccc31)c1ccccc12 (configuration not stated)	139 to 141 °C
CC(C)(C)OC(=O)CN(C(=O)CCl)c1ccccc1	86 °C
O=C(O)C1(C(F)F)c2ccccc2Oc2ccccc21	181 to 182 °C

Q: Given CCc1c(C)sc2ncnc(Cl)c12 , state its recorded melting point.
A: 52 to 56 °C

Q: Check CCOC(=O)C1=C(C)NC(NC(C)=O)=C(C(=O)OCC)C1C (configuration not stated) too.
A: 105 °C

###

As shown below, each of these molecules has a reported melting point value.

Q: Need melting point of O=C(O)COc1ccc2c(=O)c3c(oc2c1)C(=Cc1ccccc1)CC3 , thanks.
A: 277 to 279 °C

Q: Record: CCOc1nn(-c2ccc(C(F)(F)F)cc2)cc1CCCOc1cc(CCC(=O)O)n(-c2ccccc2)n1
A: 126 to 127 °C

Q: Here is the next molecule: Cc1cc2oc(=O)c(NC(=O)Nc3ccc(F)cc3F)c(-c3ccccc3C)c2cc1C
A: 215 to 217 °C

Q: Try the molecule C[C@@](O)(C(=O)Nc1ccc(S(=O)(=O)c2ccccc2)cc1F)C(F)(F)F
A: 121 to 122 °C

Q: Same question, COc1ccc(-c2ccc(C#N)cn2)cc1C=O this time
A: 197 to 198 °C

Q: Quick one: CCOC(=O)c1cn(CC)c2cc(C3CCCCC3)ccc2c1=O
A: 176 to 178 °C

Q: Next entry: O=[N+]([O-])c1c(Cl)cc(Cl)cc1-c1n[nH]cc1Cl
A: 173 °C

Q: Entry to check: COc1cccc2oc(-c3ccc(C(F)(F)F)cc3)cc(=O)c12
A: 190 to 191 °C

Q: Also N#CC1=C(N)Oc2c(ccc3cnccc23)C1c1cccc([N+](=O)[O-])c1 (centres undefined) ?
A: 239 to 243 °C

###

REPORTED_METRIC: melting point

COMPOUND	melting point
ClCCCN1c2ccccc2OCOc2ccc(Cl)cc21	105 to 108 °C
Cc1nn2c(-c3cc(Cl)ccc3Cl)ccnc2c1C#N	234 to 236 °C
COC(=O)c1cccc(OC)c1OS(=O)(=O)NC(=O)Nc1nc(C)cc(Cl)n1	140 to 143 °C

Q: What melting point value was documented for this compound, CCOC(=O)C(=O)CC(=O)C(=CN(C)C)c1ccccc1 ?
A: 110 °C

Q: Follow-up entry: COCCNC(=O)c1n[nH]c2c(=O)[nH]c3cc(Cl)ccc3c(=O)c12
A: 287 to 291 °C

Q: Same question for CCS(=O)(=O)Nc1cc(C2(NC)NC=NC=C2Cl)c(F)cc1C#N (stereo unspecified) please.
A: 211 to 212 °C

Q: Try this compound next: NC(=O)c1sc2nccc(N3CCCN(c4ccc(Cl)cc4)CC3)c2c1N
A: 92 to 96 °C

Q: For CC(C)(C)c1cc(CN(c2cccnc2)S(=O)(=O)c2ccccc2Br)cc(C(C)(C)C)c1O then?
A: 105 to 107 °C

Q: Another compound: CCCCCCCCCCCCCCCc1ccc(C(=O)c2ccccc2)c(O)c1
A: 46 to 47 °C

Q: Similarly, CC(c1ccccc1)N1Cc2cncn2C(c2cccc(Br)c2)C1=O (single isomer, unassigned; (+)) ?
A: 45 to 50 °C

Q: Consider next the compound CC(=O)CN1CCN(c2cc3c(cc2F)c(=O)c(C(=O)O)c2n3C(C)S2)CC1 (stereo unspecified) in the same way.
A: 215 to 218 °C

Q: What about COc1ccc(C=CC2=NN=C(C)Cc3cc(OC)c(OC)cc32)c(OC)c1 ?
A: 148 to 150 °C
